Target: L1CAM endogenously expressed on MCF-7 and MDA-MB-231 cells (UniProt P32004)
Procedure details: flow cytometry, MCF-7 cells
Reported metric: EC50 (nM)

| Binder | Display unit | Experimental value |
| --- | --- | --- |
| 14A10 (antibody, V domains shown) VH: EVQMVESGGGLVQPGGSLRLSCAAPGFIFSSYNMNWVRQAPGKGLEWVSYISSSSSTTYYADSVKGRFTISRDNAKNSLYLQMNSLRDEDTAVYYCASLYSGYDYYYYYGMDVWGQGTTVTVSS VL: DIVMTQTPLSSPVSLGQPASISCRSSQSLVHSDGNTYLSWLQQRPGQPPRVLIYKISKRFSGVPDRFSGSGAGTDFTLKISRVEAEDVGVYYCMQATQFPFTFGPGTKVDIK | nM | 5.3 |
| 13F04 (antibody, V domains shown) VH: QVQLQQPGAELVKPGASVKLSCKASGYIFISYWMHWVKQRPGQGLEWIGEINPRNGRTNYNEKFKSKATLTVDKSSSTAYMQLTSLTSEDSAVYYCARGGDYGGSFDYWGQGTTLTVSS VL: DIVLTQSPASLAVSLGQRATISCRASESVDSYGNSFMHWYQQKPGQPPKLLIYRASNLESGIPARFSGSGSRTDFTLTVNPVEADDVATYYCQQSNEDPWTFGGGTKLEIK | nM | 1.2 |
| 13G04 (antibody, V domains shown) VH: QVQLVQSGAEVKKPGASVKVSCKASGYTFIGYYLHWVRQAPGQGLEWMGWINPNSGGTNSAQKFQGRVTMTRDTSISTTYMDLSRLRSDDTAVYYCARGGLERRDAFDIWGQGTLVTVSS VL: DIQMTQSPSTLSASVGDRVTITCRASQSISNWLAWYQQKPGKAPNLLIYKASSLESGVPSRFSGSGSGTEFTLTISSLQPDDFATYYCQQYDTYRTFGQGTKVEIK | nM | 4.8 |
